# Tested on: Klebsiella pneumoniae expressing VIM-1 (IHMA599644)
# Test Method Notes: Antibiotic potentiation activity: synergistic concentration (MITC95) with imipenem, growth by OD600
# Format: cell-based
# Protocol Conditions: 95% inhibition of bacterial growth, strain IHMA599644
Outcome Measure: VIM1 KP599644 MITC95 (µM)

Compound | Outcome Measure | Bound Operator | Numeric Value
CCC[C@H](C(=O)O)[C@H](Cc1ccc(-c2cccc(CN3CCOCC3)c2)cc1)c1nn[nH]n1 | VIM1 KP599644 MITC95 | = | 150
CCC[C@H](C(=O)O)[C@H](Cc1ccc(N2CCC[C@@H](N)C2)cc1)c1nn[nH]n1 | VIM1 KP599644 MITC95 | = | 25
CCC[C@H](C(=O)O)[C@H](Cc1ccccc1C(N)=O)c1nnn[nH]1 | VIM1 KP599644 MITC95 | = | 37.5
CC(C)[C@H](C(=O)O)[C@H](Cc1ccc(C2CCNC2)cc1)c1nnn[nH]1 (some centres unmarked) | VIM1 KP599644 MITC95 | = | 6.2
CCC[C@H](C(=O)O)[C@H](Cc1ccc(-c2ccc(C(=O)NC)cc2)cc1)c1nn[nH]n1 | VIM1 KP599644 MITC95 | = | 50
CCC[C@H](C(=O)O)[C@H](Cc1ccc(NCc2ccc(O)cc2)nc1)c1nnn[nH]1 | VIM1 KP599644 MITC95 | = | 25
CCC[C@H](C(=O)O)[C@H](Cc1ccc(Cl)cn1)c1nnn[nH]1 | VIM1 KP599644 MITC95 | = | 100
CCC[C@H](C(=O)O)[C@H](Cc1ccc(-c2ccc3c(c2)OCC(=O)N3)cn1)c1nnn[nH]1 | VIM1 KP599644 MITC95 | = | 200
CCC[C@H](C(=O)O)[C@H](Cc1ccccc1C#N)c1nnn[nH]1 | VIM1 KP599644 MITC95 | = | 31
O=C(O)[C@@H](CCCC(F)(F)F)[C@H](Cc1ccccc1)c1nnn[nH]1 | VIM1 KP599644 MITC95 | > | 200
CC(C)[C@H](C(=O)O)[C@H](Cc1cnc(N)nc1)c1nnn[nH]1 | VIM1 KP599644 MITC95 | = | 50
CC(C)C[C@H](C(=O)O)[C@H](Cc1ccc(-c2ccc3c(c2)OCC(=O)N3)nc1)c1nn[nH]n1 | VIM1 KP599644 MITC95 | = | 50
CCC[C@H](C(=O)O)[C@H](Cc1ccc(-c2ccc(CO)cc2)cc1)c1nn[nH]n1 | VIM1 KP599644 MITC95 | = | 25
CC(=O)N1CCC(C[C@H](c2nnn[nH]2)[C@@H](C(=O)O)C(C)C)CC1 | VIM1 KP599644 MITC95 | = | 200
CCC[C@H](C(=O)O)[C@H](Cc1csc(N)n1)c1nnn[nH]1 | VIM1 KP599644 MITC95 | = | 25
CCC[C@H](C(=O)O)[C@H](Cc1ccc(C)nc1)c1nnn[nH]1 | VIM1 KP599644 MITC95 | = | 18.8
CCC[C@H](C(=O)O)[C@H](Cc1ccc(-c2cncc(N3CCN(C)CC3)c2)cc1)c1nn[nH]n1 | VIM1 KP599644 MITC95 | = | 75

Data provenance is patent US9839642B2.
